experimentalContext: rat, 60 min, 10 μmol/L, pH 7.4
metricName: NUMBER OF IDENTIFIED REACTIVE METABOLITES (COMPARATIVE EXAMPLES, GSHEE)

[
  {
    "compound": "O=c1c(O)c(-c2ccc(O)c(O)c2)oc2cc(O)cc(O)c12",
    "result": 3
  },
  {
    "compound": "COc1ccc2[nH]c([S+]([O-])Cc3ncc(C)c(OC)c3C)nc2c1 (stereo not shown)",
    "result": 1
  },
  {
    "compound": "O=C(O)Cc1ccccc1Nc1c(Cl)cccc1Cl",
    "result": 1
  },
  {
    "compound": "O=C(O)COc1ccc(C(=O)c2cccs2)c(Cl)c1Cl",
    "result": 0
  }
]
